B1: DLC1 (parent)
chain: RDAIEALCRRLNTLNKCAVMKLEI

variants of: B1; assay: protein stability index of a GFP-peptide fusion (GPS, HEK-293T) (PSI 1-6); higher = more stable; details: c terminus: a fixed tail appended;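 further: lentivirally expressed fusions sorted by FACS into six bins by GFP to DsRed ratio, PSI derived from sequencing read proportions per bin multiplied by bin number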
Recorded protein stability index determines the group label, using low bin: < 2; mid bin: ≥ 2 and < 3; high bin: ≥ 3

RDAIEALLRRLNTLNKCAVMKLEI [C8L]    mid bin
RDAIEALCRRLNTLNKCAVMKLES [I24S]    low bin
RDAIEALCRWLNTLNKCAVMKLEI [R10W]    mid bin
RDAIEALCRRLNTLNKRAVMKLEI [C17R]    low bin
RDAIEALCRRLNTLNKCAVMKDEI [L22D]    low bin

In: Please let me know in which category the item RDAIEALCRRLNTLNKCAVMPLEI [K21P] belongs.
Out: low bin

In: Quick check: band for RDAIEALCRRLNTLNKCAVDKLEI [M20D]
Out: low bin

In: Which bin should I file RDAIEALCERLNTLNKCAVMKLEI [R9E] under?
Out: high bin

In: Which protein stability index band matches RDAIEALCRRLNTLNKCAVMKKEI [L22K] ?
Out: low bin

In: Which band does RDAIEALCRRLNTLNQCAVMKLEI [K16Q] fall in?
Out: high bin

In: Would you mind sorting RDCIEALCRRLNTLNKCAVMKLEI [A3C] into the appropriate category?
Out: high bin

In: Exercise: read the entry RDAIEALCRRLNTLNKCAVMELEI [K21E] and state which class it falls under.
Out: low bin

In: Category of RDAIEALCRRLNTLNKCAVMKLEK [I24K] :
Out: low bin

In: Exam item: assign RDAIEALCCRLNTLNKCAVMKLEI [R9C] to the correct category.
Out: high bin

In: Looking at RDAIEALCRRLNTLGKCAVMKLEI [N15G] , which class would you pick?
Out: mid bin

In: Form field 'band' for RDAEEALCRRLNTLNKCAVMKLEI [I4E]
Out: low bin

In: Please classify: RSAIEALCRRLNTLNKCAVMKLEI [D2S]
Out: high bin

In: GET /class?item= RDAIEALCRRLNTQNKCAVMKLEI [L14Q]
Out: mid bin

In: Into which category would you place RDAIEALCRRLNSLNKCAVMKLEI [T13S] ?
Out: mid bin
